This collection of values is drawn from paper PMC12004362.

Listed here are compounds together with their documented CC50 at 72 h.
assay: in vitro; settings: human, primary human astrocytes
Report only the number, with the unit nM understood.

• CC[C@H]1CN2CCc3cc(OC)c(OC)cc3[C@@H]2C[C@@H]1C[C@H]1NCCc2cc(OC)c(OC)cc21 [Emetine] = 1240

Then there is this compound:
Exercise: Looking for the measured CC50 at 72 h of COc1cccc2c1C(=O)c1c(O)c3c(c(O)c1C2=O)C[C@@](O)(C(=O)CO)C[C@@H]3O[C@H]1C[C@H](N)[C@H](O)[C@H](C)O1 [Doxorubicin] , can you help?
Solution: 131

* * *

test: in vitro; conditions: human
Reported Metric: CC50 at 72 h (nM)
Report only the number, with the unit nM understood.

Exercise: Looking for the measured CC50 at 72 h of COc1cccc2c1C(=O)c1c(O)c3c(c(O)c1C2=O)C[C@@](O)(C(=O)CO)C[C@@H]3O[C@H]1C[C@H](N)[C@H](O)[C@H](C)O1 , can you help?
Solution: 699
